- EXPERIMENT_SUMMARY: HIV Vif self-association inhibitors, primary screen, imaging, HEK293T, single point (AID 602346)
- MEASUREMENT_CONTEXT: HEK293T cells, Vif self-association by quenched fluorescence, 24 h, at 7.49 µM
About 1,200 (0.35%) of roughly 340,000 compounds were called active. No stated cut-off is given here; in the data, active means inhibition above about 50% (passing the limit was not always enough); inconclusive means no clear call, values can overlap the other calls; inactive means below about 31%. For the sample, actives were picked, then their nearest neighbours and some compounds at random.
Outcome codes: y (active), n (inactive)

{"columns": ["STRUCTURE_SMILES", "CLASS_NAME"],
 "data": [
  ["CCOc1ccc(CCN2C(=S)N([C@@H](CC(C)C)CN3CCC[C@@H]3CN3C(=S)NC[C@@H]3Cc3ccc(O)cc3)C[C@@H]2Cc2ccc(O)cc2)cc1", "n"],
  ["COc1ccc(C(=O)NCc2nnc(SCC(=O)Nc3cccc(OC)c3)o2)cc1", "n"],
  ["COc1ccc(-c2cc(NC=O)c3ncc(-c4cc(OC)c(OC)c(OC)c4)n3c2)c(OC)c1", "n"],
  ["O=C1C=C(NS(=O)(=O)c2ccccc2)C(=O)c2ccccc21", "n"],
  ["COc1ccc(Cc2nnc(SCC(=O)Nc3ccc(C)c(C)c3)o2)cc1OC", "n"],
  ["Cn1c(NC(=O)c2ccccc2)nc2ccccc21", "n"],
  ["CCOC(=O)c1ccc(Nc2cc3ccccc3c(=O)[nH]2)cc1", "n"],
  ["COC(=O)c1ccc(NCC(=O)c2ccccc2)cc1", "n"],
  ["CCCCN(C=O)c1c(CC)nc2c(OCCC3CCCCC3)cccn12", "n"],
  ["O=C(NC1=CC(=O)c2ccccc2C1=O)c1ccccc1", "y"]
]}

* * *

- EXPERIMENT_SUMMARY: HIV Vif self-association inhibitors, primary screen, imaging, HEK293T, single point (AID 602346)
- MEASUREMENT_CONTEXT: HEK293T cells, Vif self-association by quenched fluorescence, 24 h, at 7.49 µM, hits give high values
Hit rate of the full screen: of about 340,000 compounds, about 1,200 (0.35%) were called active. Many of the other results were omitted from the sample, so actives are more common in it than they were.
MEASURED_QUANTITY: inhibition (%)

{"columns": ["COMPOUND", "MEASURED_QUANTITY", "EXPERIMENTAL_RESULT"],
 "data": [
  ["C=C1C(=O)[C@]23C[C@H]1CCC2[C@@]1(C)C(C[C@@H]3O)[C@](C)(C(=O)O)CC[C@@H]1O (stereo not given in full)", "inhibition", 12.6],
  ["CC1(C(=O)NCc2ccc(F)c(F)c2)Cc2c(-c3ccc4c(c3)OCO4)ccnc2O1 (stereo not given)", "inhibition", -5.82],
  ["COC(=O)Nc1nc2ccc(Sc3ccccc3)cc2[nH]1", "inhibition", 57],
  ["CN(c1ccccc1)S(=O)(=O)c1cc(C(=O)Nc2nc3ccccc3[nH]2)ccc1Cl", "inhibition", -13.9],
  ["COCOCCn1cc(CN2CCS(=O)(=O)N(Cc3ccc(-c4ccc(OC)cc4)cc3)C(CC(C)C)C2=O)nn1 (stereo not given)", "inhibition", 1.43],
  ["Cc1ccc(O)c(CNc2nc3ccccc3[nH]2)c1", "inhibition", -2.01],
  ["COC(=O)NNC1=CC(=O)CC(C)(C)C1", "inhibition", 7.17],
  ["COc1ccc(OC)c(NC(=O)COC(=O)Cc2ccsc2)c1", "inhibition", 9.67],
  ["CC1(C)CC(=O)C=C(NC2CC(C)(C)NC(C)(C)C2)C1", "inhibition", 65.2],
  ["Cc1ccc(C(NC(=O)C2CCN(CCOc3ccc(Cl)cc3Cl)CC2)c2ccccn2)cc1 (stereo not given)", "inhibition", 4.63]
]}
